Source of measurements: patent US8476255B2

For each record, write down the corresponding LC50 (concentration giving 50% net cell kill relative to the time-zero cell count).
# System: U251 (glioma) cells
# experiment-description: Anti-cancer screen (MTT), U251
# Assay type: cell-based
# measurement-conditions: Homo sapiens, U-251; U251, 48 hours, MTT; read-out: Cell growth inhibition U251 (Glioma) LC50
Your answer should be a plain number; it is taken to be in µM.

Given CSc1ccc(/C=C(/C(=O)NCc2ccc(C(=O)Nc3ccccc3N)cc2)c2ccc(F)cc2)cc1 [Compound 6] , state its recorded LC50 (concentration giving 50% net cell kill relative to the time-zero cell count). 83.2

Given COC(=O)c1ccc(/C=C(/C(=O)NCc2ccc(C(=O)Nc3ccccc3N)cc2)c2cccs2)cc1 [Compound 36] , state its recorded LC50 (concentration giving 50% net cell kill relative to the time-zero cell count). 90

Given COc1cc(/C=C(/C(=O)NCCCCCC(=O)NO)c2ccc(F)cc2)ccc1F [Compound 91] , state its recorded LC50 (concentration giving 50% net cell kill relative to the time-zero cell count). 92

---

# Tested on: HCT 116 (colon) cells
# experiment-description: Anti-cancer screen (MTT), HCT 116
# Format: cell-based
# measurement-conditions: Homo sapiens, HCT-116; HCT116, 48 hours, MTT; read-out: Cell growth inhibition HCT116 (Colon) LC50
value-type: CC50

Given CS(=O)(=O)c1ccc(/C=C(/C(=O)NCCCCCC(=O)NO)c2ccc(F)cc2)cc1 , state its recorded CC50. > 100 µM

Given CSc1ccc(/C=C(/C(=O)NCCCCCC(=O)NO)c2ccccc2F)cc1 , state its recorded CC50. 80 µM

Given CS(=O)(=O)c1ccc(/C=C(/C(=O)NCCCCCC(=O)Nc2ccccc2N)c2ccc(F)cc2)cc1 , state its recorded CC50. > 100 µM

Given COc1ccc(/C=C(/C(=O)NCc2ccc(C(=O)Nc3ccccc3N)cc2)c2ccc(F)cc2)cc1OC , state its recorded CC50. 58 µM

Given COc1ccc(/C(=C\c2ccc(SC)cc2)C(=O)NCc2ccc(C(=O)Nc3ccccc3N)cc2)cc1 , state its recorded CC50. > 100 µM

Given CSc1ccc(/C=C(/C(=O)NCc2ccc(C(=O)Nc3ccccc3N)cc2)c2ccsc2)cc1 , state its recorded CC50. > 100 µM

Given COc1cc(/C=C(/C(=O)NCc2ccc(C(=O)Nc3ccccc3N)cc2)c2ccc(F)cc2)cc(OC)c1 , state its recorded CC50. > 100 µM

Given COc1ccc(/C=C(/C(=O)NCc2ccc(C(=O)Nc3ccccc3N)cc2)c2cccc(F)c2)cc1OC , state its recorded CC50. > 100 µM

Given CSc1ccc(/C=C(/C(=O)NCCCCCC(=O)NO)c2ccsc2)cc1 , state its recorded CC50. > 100 µM

Given COc1ccc(/C=C(/C(=O)NCc2ccc(C(=O)Nc3ccccc3N)cc2)c2ccc(F)cc2)cc1 , state its recorded CC50. 68.5 µM

Given O=C(CCCCCNC(=O)NC(=O)/C(=C/c1ccccc1)c1ccccc1)NO , state its recorded CC50. 13.2 µM

Given COc1ccc(/C=C(/C(=O)NCc2ccc(C(=O)Nc3ccccc3N)cc2)c2cccs2)cc1OC , state its recorded CC50. 80 µM

Given Nc1ccccc1NC(=O)c1ccc(CNC(=O)/C(=C/C2CC2)c2ccc(F)cc2)cc1 , state its recorded CC50. 81 µM

Given COc1cc(/C=C(/C(=O)NCCCCCC(=O)NO)c2ccc(F)cc2)ccc1F , state its recorded CC50. > 100 µM

Given Nc1ccccc1NC(=O)c1ccc(CNC(=O)/C(=C/c2ccc([N+](=O)[O-])s2)c2ccc(F)cc2)cc1 , state its recorded CC50. 71.2 µM

Given CSc1ccc(/C=C(/C(=O)NCc2ccc(C(=O)NO)cc2)c2ccc(F)cc2)cc1 , state its recorded CC50. 69 µM

---

For each record, write down the corresponding CC50.
# Tested on: HCT 116 (colon) cells
# experiment-description: Anti-cancer screen (MTT), HCT 116
# Assay type: cell-based
# measurement-conditions: Homo sapiens, HCT-116; HCT116, 48 hours, MTT; read-out: Cell growth inhibition HCT116 (Colon) LC50
Your answer should be a plain number; it is taken to be in µM.

Find CC50 (HCT 116 (colon) cells) for the entry COC(=O)c1ccc(/C=C(/C(=O)NCc2ccc(C(=O)Nc3ccccc3N)cc2)c2cccc(Cl)c2)cc1 80

Find CC50 (HCT 116 (colon) cells) for the entry O=C(NCc1ccc(C(=O)NO)cc1)/C(=C/c1ccc(F)cc1)c1ccccc1 83

---

For each record, write down the corresponding LC50 (concentration giving 50% net cell kill relative to the time-zero cell count).
# Test system: U251 (glioma) cells
# experiment-description: Anti-cancer screen (MTT), U251
# Format: cell-based
# measurement-conditions: Homo sapiens, U-251; U251, 48 hours, MTT; read-out: Cell growth inhibition U251 (Glioma) LC50

Find LC50 (concentration giving 50% net cell kill relative to the time-zero cell count) (U251 (glioma) cells) for the entry Nc1ccccc1NC(=O)c1ccc(CNC(=O)/C(=C/c2ccc([N+](=O)[O-])s2)c2ccc(F)cc2)cc1 [Compound 7] 76 µM

Find LC50 (concentration giving 50% net cell kill relative to the time-zero cell count) (U251 (glioma) cells) for the entry CSc1ccc(/C=C(/C(=O)NCc2ccc(C(=O)NO)cc2)c2ccsc2)cc1 [Compound 59] 65 µM

Find LC50 (concentration giving 50% net cell kill relative to the time-zero cell count) (U251 (glioma) cells) for the entry COc1cc(/C=C(/C(=O)NCc2ccc(C(=O)Nc3ccccc3N)cc2)c2ccc(F)cc2)cc(OC)c1OC [Compound 8] > 100 µM

Find LC50 (concentration giving 50% net cell kill relative to the time-zero cell count) (U251 (glioma) cells) for the entry COc1ccc(/C=C(/C(=O)NCc2ccc(C(=O)Nc3ccccc3N)cc2)c2ccccc2Cl)cc1OC [Compound 30] > 100 µM

Find LC50 (concentration giving 50% net cell kill relative to the time-zero cell count) (U251 (glioma) cells) for the entry O=C(NCc1ccc(C(=O)NO)cc1)/C(=C/c1c(F)cc(F)cc1F)c1ccc(F)cc1 [Compound 54] 64 µM

Find LC50 (concentration giving 50% net cell kill relative to the time-zero cell count) (U251 (glioma) cells) for the entry O=C(CCCCCNC(=O)/C(=C/c1c(F)cc(F)cc1F)c1ccc(F)cc1)NO [Compound 89] 81 µM

Find LC50 (concentration giving 50% net cell kill relative to the time-zero cell count) (U251 (glioma) cells) for the entry CSc1ccc(/C=C(/C(=O)NCc2ccc(C(=O)NO)cc2)c2cccnc2)cc1 [Compound 55] 56 µM

Find LC50 (concentration giving 50% net cell kill relative to the time-zero cell count) (U251 (glioma) cells) for the entry COc1ccc(/C=C(/C(=O)NCc2ccc(C(=O)Nc3ccccc3N)cc2)c2ccccc2)c(OC)c1 [Compound 39] > 100 µM

Find LC50 (concentration giving 50% net cell kill relative to the time-zero cell count) (U251 (glioma) cells) for the entry Nc1ccccc1NC(=O)c1ccc(CNC(=O)/C(=C/c2ccc(F)c(F)c2)c2ccc(F)cc2)cc1 [Compound 1] 35 µM

Find LC50 (concentration giving 50% net cell kill relative to the time-zero cell count) (U251 (glioma) cells) for the entry CSc1ccc(/C=C(/C(=O)NCc2ccc(C(=O)Nc3ccccc3N)cc2)c2cccs2)cc1 [Compound 18] 7 µM

Find LC50 (concentration giving 50% net cell kill relative to the time-zero cell count) (U251 (glioma) cells) for the entry O=C(NCc1ccc(C(=O)NO)cc1)/C(=C/c1ccc(F)cc1)c1ccc(C(F)(F)F)cc1 [Compound 50] 87 µM

Find LC50 (concentration giving 50% net cell kill relative to the time-zero cell count) (U251 (glioma) cells) for the entry COC(=O)c1ccc(/C=C(/C(=O)NCc2ccc(C(=O)Nc3ccccc3N)cc2)c2ccc(F)c(F)c2)cc1 [Compound 38] > 100 µM

Find LC50 (concentration giving 50% net cell kill relative to the time-zero cell count) (U251 (glioma) cells) for the entry COC(=O)c1ccc(/C=C(/C(=O)NCc2ccc(C(=O)Nc3ccccc3N)cc2)c2ccc(OC)cc2)cc1 [Compound 35] > 100 µM

Find LC50 (concentration giving 50% net cell kill relative to the time-zero cell count) (U251 (glioma) cells) for the entry COc1ccc(/C=C(/C(=O)NCc2ccc(C(=O)Nc3ccccc3N)cc2)c2ccccc2F)cc1OC [Compound 28] > 100 µM

Find LC50 (concentration giving 50% net cell kill relative to the time-zero cell count) (U251 (glioma) cells) for the entry O=C(CCCCCCNC(=O)/C(=C\c1ccccc1)c1ccccc1)NO [Compound 85] 80 µM

Find LC50 (concentration giving 50% net cell kill relative to the time-zero cell count) (U251 (glioma) cells) for the entry COc1cc(/C=C(/C(=O)NCc2ccc(C(=O)NO)cc2)c2ccc(F)cc2)ccc1F [Compound 60] 99 µM

---

# Test system: HCT 116 (colon) cells
# experiment-description: Anti-cancer screen (MTT), HCT 116
# Assay type: cell-based
# measurement-conditions: Homo sapiens, HCT-116; HCT116, 48 hours, MTT; read-out: Cell growth inhibition HCT116 (Colon) LC50
value-type: CC50 (µM)
Your answer should be a plain number; it is taken to be in µM.

Given O=C(CCCCCNC(=O)/C(=C/c1c(F)cc(F)cc1F)c1ccc(F)cc1)NO [Compound 89] , state its recorded CC50. 83

Given CSc1ccc(/C=C(/C(=O)NCCCCCC(=O)NO)c2ccccc2Cl)cc1 [Compound 95] , state its recorded CC50. 66

Given CSc1ccc(/C=C(/C(=O)NCc2ccc(C(=O)Nc3ccccc3N)cc2)c2ccccc2Cl)cc1 [Compound 23] , state its recorded CC50. 98
